// provenance: patent US20140288185A1

Kindly state pKi for each of the entries shown.
- TGT: Nicotinic, human α3β4 (Homo sapiens, UniProt P30926+P32297)
- Construct: host or cells: CHO
- Sequence (P32297 32-505): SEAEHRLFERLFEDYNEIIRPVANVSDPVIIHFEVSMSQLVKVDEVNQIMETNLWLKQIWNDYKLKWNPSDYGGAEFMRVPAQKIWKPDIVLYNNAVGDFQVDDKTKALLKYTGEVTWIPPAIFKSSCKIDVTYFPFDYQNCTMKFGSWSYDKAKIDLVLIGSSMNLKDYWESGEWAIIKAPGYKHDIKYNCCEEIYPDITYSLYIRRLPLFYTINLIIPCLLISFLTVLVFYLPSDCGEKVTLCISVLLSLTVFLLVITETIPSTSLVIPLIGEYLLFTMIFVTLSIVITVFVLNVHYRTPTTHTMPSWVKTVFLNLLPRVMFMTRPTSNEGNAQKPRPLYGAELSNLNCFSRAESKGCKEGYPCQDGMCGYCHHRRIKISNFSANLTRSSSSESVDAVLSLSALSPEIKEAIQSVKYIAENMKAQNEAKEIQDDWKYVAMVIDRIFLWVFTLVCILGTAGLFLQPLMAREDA
- Sequence (P30926 22-498): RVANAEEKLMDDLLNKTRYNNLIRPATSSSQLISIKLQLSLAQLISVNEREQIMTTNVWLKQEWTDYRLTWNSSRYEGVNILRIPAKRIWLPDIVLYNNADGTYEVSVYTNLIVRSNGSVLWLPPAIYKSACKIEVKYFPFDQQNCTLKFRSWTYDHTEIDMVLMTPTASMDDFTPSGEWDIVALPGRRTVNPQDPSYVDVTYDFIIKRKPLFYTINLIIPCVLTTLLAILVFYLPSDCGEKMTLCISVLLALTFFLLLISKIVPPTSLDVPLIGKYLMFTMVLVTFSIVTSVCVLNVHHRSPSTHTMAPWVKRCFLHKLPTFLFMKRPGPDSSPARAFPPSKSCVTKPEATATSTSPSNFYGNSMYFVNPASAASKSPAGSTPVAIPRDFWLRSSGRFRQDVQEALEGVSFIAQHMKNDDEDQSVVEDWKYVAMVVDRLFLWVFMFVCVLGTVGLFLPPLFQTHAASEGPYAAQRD
- PROTOCOL: Competition binding, human α3β4 nicotinic receptor (CHO human α3β4 membranes)
- MEASUREMENT CONTEXT: CHO Human α3β4 membranes, [3H]epibatidine 1 nM; read-out: Human CHO α3β4 Ki
Convention used: pKi is expressed as -log10 of the molar concentration.

May I ask what pKi has been recorded for `CC[C@]12CCC[C@@]1(N(C)C)[C@@H]1CC[C@H]2C1` ?
4.15

May I ask what pKi has been recorded for `CC[C@@]12CCC[C@]1(N(C)C)[C@H]1CC[C@@H]2C1` ?
4.04

May I ask what pKi has been recorded for `C[N+](C)(C)[C@]12CCC[C@H]1[C@@H]1CC[C@H]2C1` ?
4.89

May I ask what pKi has been recorded for CCCCC12CCCC1(NC)C1CCC2C1 (stereo not drawn) ?
4.13

May I ask what pKi has been recorded for `CN(C)[C@@]12CCC[C@@H]1[C@H]1CC[C@@H]2C1` ?
4.89

May I ask what pKi has been recorded for `CN(C)[C@]12CCC[C@H]1[C@@H]1CC[C@H]2C1` ?
4.80
